FYI, the data here is from patent US7368424B2.

For each entry below, report its MIC E. faecalis ICB 27159 value.
Tested on: E. faecalis ICB 27159
Assay type: cell-based, Enterococcus faecalis
condition.notes: ICB 27159
*1 amine or outer side, *2 acyl side, *3 side chain or, on linkers, in order; H or OH if unused. Where a SMILES comes first, the peptide text is derived from it. Bridges are numbered along the chain shown (N, C = ends). [ ]: non-standard residue; d: D form. Phe(3R-OH) = O=C([C@@H](N[*:1])[C@H](O[*:3])c1ccccc1)[*:2]; Phe(4-NO2) = N[C@@H](Cc1ccc([N+](=O)[O-])cc1)C(=O)O; Asn(3S-OH) = NC(=O)[C@@H](O)[C@H](N)C(=O)O; Leu(3R-OH) = CC(C)[C@@H](O)[C@H](N)C(=O)O; Ala(cPr) = N[C@@H](CC1CC1)C(=O)O; tBuAla = CC(C)(C)C[C@H](N)C(=O)O; aThr = C[C@H](O)[C@H](N)C(=O)O
// note: answer is a bare numeric in µg/mL

In plain terms, CC[C@H](C)[C@@H]1NC(=O)[C@@H](CCCNC(=N)N)NC(=O)[C@H](CC(C)C)NC(=O)[C@H]([C@H](O)C(C)C)NC(=O)[C@@H](NC(=O)[C@H](CC(C)C)NC(=O)[C@H](N)Cc2ccccc2)[C@@H](c2ccccc2)OC(=O)[C@H](CO)NC(=O)[C@H]([C@H](O)C(N)=O)NC(=O)CNC(=O)[C@H]([C@H](C)O)NC1=O [Example 38] (H-[dF]L[Phe(3R-OH)][Leu(3R-OH)]L[dR]I[aThr]G[Asn(3S-OH)]S; ester 3-C) has a documented MIC E. faecalis ICB 27159 of 1

In plain terms, CC[C@H](C)[C@@H]1NC(=O)[C@@H](CCCNC(=N)N)NC(=O)[C@H](CC(C)C)NC(=O)[C@H]([C@H](O)C(C)C)NC(=O)[C@@H](NC(=O)[C@H](CC(C)(C)C)NC(=O)[C@H](N)CC(C)C)[C@@H](c2ccccc2)OC(=O)[C@H](CO)NC(=O)[C@H]([C@H](O)C(N)=O)NC(=O)CNC(=O)[C@H]([C@H](C)O)NC1=O [Example 3] (H-[dL][tBuAla][Phe(3R-OH)][Leu(3R-OH)]L[dR]I[aThr]G[Asn(3S-OH)]S; ester 3-C) has a documented MIC E. faecalis ICB 27159 of 0.25

In plain terms, CC[C@H](C)[C@@H]1NC(=O)[C@@H](CCCNC(=N)N)NC(=O)[C@H](CC(C)C)NC(=O)[C@H]([C@H](O)C(C)C)NC(=O)[C@@H](NC(=O)[C@H](Cc2ccc([N+](=O)[O-])cc2)NC(=O)[C@H](N)Cc2ccccc2)[C@@H](c2ccccc2)OC(=O)[C@H](CO)NC(=O)[C@H]([C@H](O)C(N)=O)NC(=O)CNC(=O)[C@H]([C@H](C)O)NC1=O.O=C(O)C(F)(F)F.O=C(O)C(F)(F)F [Example 81] (H-[dF][Phe(4-NO2)][Phe(3R-OH)][Leu(3R-OH)]L[dR]I[aThr]G[Asn(3S-OH)]S; ester 3-C) has a documented MIC E. faecalis ICB 27159 of 0.25

In plain terms, CC[C@H](C)[C@@H]1NC(=O)[C@@H](CCCNC(=N)N)NC(=O)[C@H](CC(C)C)NC(=O)[C@H]([C@H](O)C(C)C)NC(=O)[C@@H](NC(=O)[C@H](CC(C)C)NC(=O)[C@@H](N)Cc2ccccc2)[C@@H](c2ccccc2)OC(=O)[C@H](CO)NC(=O)[C@H]([C@H](O)C(N)=O)NC(=O)CNC(=O)[C@H]([C@H](C)O)NC1=O [Example 48] (H-FL[Phe(3R-OH)][Leu(3R-OH)]L[dR]I[aThr]G[Asn(3S-OH)]S; ester 3-C) has a documented MIC E. faecalis ICB 27159 of 0.5

In plain terms, CC[C@H](C)[C@@H]1NC(=O)[C@@H](CCCNC(=N)N)NC(=O)[C@H](CC(C)C)NC(=O)[C@H]([C@H](O)C(C)C)NC(=O)[C@@H](NC(=O)[C@H](CC2CC2)NC(=O)[C@H](N)CC(C)C)[C@@H](c2ccccc2)OC(=O)[C@H](CO)NC(=O)[C@H]([C@H](O)C(N)=O)NC(=O)CNC(=O)[C@H]([C@H](C)O)NC1=O.O=C(O)C(F)(F)F.O=C(O)C(F)(F)F [Example 1] (H-[dL][Ala(cPr)][Phe(3R-OH)][Leu(3R-OH)]L[dR]I[aThr]G[Asn(3S-OH)]S; ester 3-C) has a documented MIC E. faecalis ICB 27159 of 0.5
